system: GABAB receptor (Rattus norvegicus)
Sequence (Q9Z0U4 17-960 limits assumed): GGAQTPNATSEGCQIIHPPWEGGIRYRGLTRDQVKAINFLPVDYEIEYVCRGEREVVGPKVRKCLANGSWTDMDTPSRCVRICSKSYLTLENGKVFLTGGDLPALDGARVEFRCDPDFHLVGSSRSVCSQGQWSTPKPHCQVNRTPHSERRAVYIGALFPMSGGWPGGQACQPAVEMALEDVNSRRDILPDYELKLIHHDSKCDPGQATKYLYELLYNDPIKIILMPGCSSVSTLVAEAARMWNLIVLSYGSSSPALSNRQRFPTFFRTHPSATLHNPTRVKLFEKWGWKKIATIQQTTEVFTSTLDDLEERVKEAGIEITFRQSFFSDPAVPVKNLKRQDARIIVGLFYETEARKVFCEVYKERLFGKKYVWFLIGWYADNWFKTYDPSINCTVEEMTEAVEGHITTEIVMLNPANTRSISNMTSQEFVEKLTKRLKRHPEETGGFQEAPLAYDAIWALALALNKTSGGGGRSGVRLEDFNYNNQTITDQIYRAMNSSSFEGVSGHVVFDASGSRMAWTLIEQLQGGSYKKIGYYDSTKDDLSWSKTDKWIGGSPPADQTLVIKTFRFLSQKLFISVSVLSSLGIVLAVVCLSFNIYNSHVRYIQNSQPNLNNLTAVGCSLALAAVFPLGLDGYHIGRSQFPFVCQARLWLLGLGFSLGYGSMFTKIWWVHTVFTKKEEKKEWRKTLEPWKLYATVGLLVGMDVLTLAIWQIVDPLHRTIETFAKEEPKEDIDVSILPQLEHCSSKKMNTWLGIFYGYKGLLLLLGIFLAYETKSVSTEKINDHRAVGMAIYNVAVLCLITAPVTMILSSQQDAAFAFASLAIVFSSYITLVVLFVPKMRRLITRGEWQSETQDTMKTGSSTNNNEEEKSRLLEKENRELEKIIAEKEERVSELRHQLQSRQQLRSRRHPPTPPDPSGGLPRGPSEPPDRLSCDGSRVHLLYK
Sequence (O88871 41-940 partner): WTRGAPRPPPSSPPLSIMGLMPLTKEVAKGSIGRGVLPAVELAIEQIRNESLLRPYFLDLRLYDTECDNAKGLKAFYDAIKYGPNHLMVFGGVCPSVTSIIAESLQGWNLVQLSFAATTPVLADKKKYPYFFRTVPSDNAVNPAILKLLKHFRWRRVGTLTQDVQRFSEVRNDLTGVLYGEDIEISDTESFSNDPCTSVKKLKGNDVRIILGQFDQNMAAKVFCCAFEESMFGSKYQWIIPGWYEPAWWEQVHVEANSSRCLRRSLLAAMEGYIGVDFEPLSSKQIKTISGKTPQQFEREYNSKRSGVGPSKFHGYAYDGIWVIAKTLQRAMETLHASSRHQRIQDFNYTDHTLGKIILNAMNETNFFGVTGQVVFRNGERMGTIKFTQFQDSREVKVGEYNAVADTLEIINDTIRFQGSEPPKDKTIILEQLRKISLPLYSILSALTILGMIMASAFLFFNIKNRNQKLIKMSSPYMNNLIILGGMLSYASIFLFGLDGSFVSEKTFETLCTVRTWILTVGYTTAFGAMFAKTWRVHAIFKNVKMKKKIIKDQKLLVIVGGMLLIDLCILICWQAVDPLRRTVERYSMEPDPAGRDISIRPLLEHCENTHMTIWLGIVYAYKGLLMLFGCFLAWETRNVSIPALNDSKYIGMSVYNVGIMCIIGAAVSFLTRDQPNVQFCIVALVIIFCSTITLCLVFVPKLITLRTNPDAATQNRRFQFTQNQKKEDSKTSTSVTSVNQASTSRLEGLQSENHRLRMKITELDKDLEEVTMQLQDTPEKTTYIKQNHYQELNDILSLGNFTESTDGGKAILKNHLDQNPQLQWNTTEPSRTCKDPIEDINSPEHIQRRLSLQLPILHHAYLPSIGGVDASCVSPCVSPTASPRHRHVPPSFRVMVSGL
measurement_description: biochemical
pIC50: −log10 of the molar value.
readout_type: pIC50

-- ask // query pIC50 value for entry "N[C@H]1C[C@@H](C(=O)O)CC1=C(F)F"
-- reply < 4.00
